Every entry's value here was drawn from patent US9555038B2.

- System: HCV replicon 1AY93H
- assay info: Cell-based HCV Replicon Assay A, replicon 1AY93H
- test parameters: read-out: 1A Y93H IC50, replicon 1AY93H
quantity: pIC50
// field semantics: pIC50 = negative decimal log of concentration (mol/L)

>>> data_value("COC(=O)NC(C(=O)N1CCC[C@H]1c1ncc(-c2ccc3c(c2)cc2n3C(c3cnc(CC(C)C)s3)Oc3cc(-c4cnc([C@@H]5CCCN5C(=O)[C@@H](NC(=O)OC)C(C)C)[nH]4)cc(F)c3-2)[nH]1)C1CCOC(C)(C)C1 (single isomer, unassigned) [Compound 542]")
9.31

Now look at this one.
Assay HCV replicon 1AY93H, sample CCc1ncc(C2Oc3cc(-c4cnc([C@@H]5CCCN5C(=O)[C@@H](NC(=O)OC)C(C)C)[nH]4)cc(F)c3-c3cc4cc(-c5cnc([C@@H]6CCCN6C(=O)[C@@H](NC(=O)OC)C(C)C)[nH]5)ccc4n32)s1 (single isomer, unassigned) [Compound 81] , pIC50 read: 10.72

====

// reported IC50 per item
- Tested on: HCV replicon 1AY93H
- assay info: Cell-based HCV Replicon Assay A, replicon 1AY93H
- test parameters: read-out: 1A Y93H IC50, replicon 1AY93H
// note: answer is a bare numeric in nM

Recorded results for 3 compounds are shown here.
>>> data_value("COC(=O)N[C@H](C(=O)N1CCC[C@H]1c1ncc(-c2cc(F)c3c(c2)OC(c2cnc(-c4ccc(F)cc4F)s2)n2c-3cc3cc(-c4cnc([C@@H]5CCCN5C(=O)[C@@H](NC(=O)OC)C(C)C)[nH]4)ccc32)[nH]1)C(C)C (single isomer, unassigned) [Compound 98]")
0.01
>>> data_value("COC(=O)N[C@H](C(=O)N1CCC[C@H]1c1ncc(-c2cc(F)c3c(c2)OC(c2cnc(C4CCCC4)s2)n2c-3cc3cc(-c4cnc([C@@H]5CCCN5C(=O)[C@@H](NC(=O)OC)C(C)C)[nH]4)ccc32)[nH]1)C(C)C (single isomer, unassigned) [Compound 25]")
0.0025
>>> data_value("CCc1ncc(C2Oc3cc(-c4cnc([C@@H]5CCCN5C(=O)[C@@H](NC(=O)OC)C(C)C)[nH]4)cc(F)c3-c3cc4cc(-c5cnc([C@@H]6CCCN6C(=O)C(NC(=O)OC)C6CCOC(C)(C)C6)[nH]5)ccc4n32)s1 (single isomer, unassigned) [Compound 37]")
0.257

Now look at this one.
The recorded IC50 for COC(=O)N[C@H](C(=O)N1CCC[C@H]1c1ncc(-c2cc(F)c3c(c2)OC(c2cnc(-c4ccc(F)cc4)s2)n2c-3cc3cc(-c4cnc([C@@H]5CCCN5C(=O)[C@@H](NC(=O)OC)C(C)C)[nH]4)ccc32)[nH]1)C(C)C (single isomer, unassigned) [Compound 32] is 0.344

====

// reported IC50 per item
- Tested on: HCV replicon 1AY93H
- assay info: Cell-based HCV Replicon Assay A, replicon 1AY93H
- test parameters: read-out: 1A Y93H IC50, replicon 1AY93H
State the value, then name its unit.

Recorded results for 3 compounds are shown here.
>>> data_value("COC(=O)NC(C(=O)N1CCC[C@H]1c1ncc(-c2ccc3c(c2)cc2n3C(c3cnc(C(C)C)s3)Oc3cc(-c4cnc([C@@H]5CCCN5C(=O)[C@@H](NC(=O)OC)C(C)C)[nH]4)cc(F)c3-2)[nH]1)C1C[C@@H](C)O[C@@H](C)C1 (single isomer, unassigned) [Compound 57]")
"0.002 nM"
>>> data_value("COC(=O)N[C@H](C(=O)N1CCC[C@H]1c1ncc(-c2cc(F)c3c(c2)OC(c2nc(C4CC4)cs2)n2c-3cc3cc(-c4cnc([C@@H]5CCCN5C(=O)[C@@H](NC(=O)OC)C(C)C)[nH]4)ccc32)[nH]1)C(C)C (single isomer, unassigned) [Compound 12]")
"0.18 nM"
>>> data_value("COC(=O)NC(C(=O)N1CCC[C@H]1c1ncc(-c2ccc3c(c2)cc2n3C(c3cnc(CC(C)C)s3)Oc3cc(-c4cnc([C@@H]5CCCN5C(=O)[C@@H](NC(=O)OC)C(C)C)[nH]4)cc(F)c3-2)[nH]1)C1C[C@@H](C)O[C@@H](C)C1 (single isomer, unassigned) [Compound 547]")
"0.005 nM"

Now look at this one.
The recorded IC50 for CCCOCc1ncc(C2Oc3cc(-c4cnc([C@@H]5CCCN5C(=O)[C@@H](NC(=O)OC)C(C)C)[nH]4)cc(F)c3-c3cc4cc(-c5cnc([C@@H]6CCCN6C(=O)[C@@H](NC(=O)OC)C(C)C)[nH]5)ccc4n32)s1 (single isomer, unassigned) [Compound 492] is 0.03 nM

====

- Test system: HCV replicon 1AQ30D
- assay info: Cell-based HCV Replicon Assay B, replicon 1AQ30D
- test parameters: Hepatitis C virus, read-out: 1A Q30D IC50 (nM), replicon 1AQ30D
quantity: log10(IC50) (log10 of the value in nM)
Values are log10 of IC50 in nM.

Recorded results for 6 compounds are shown here.
>>> data_value("CCCc1ncc(C2Oc3cc(-c4cnc([C@@H]5CCCN5C(=O)[C@@H](NC(=O)OC)C(C)C)[nH]4)cc(F)c3-c3cc4cc(-c5cnc([C@@H]6C[C@H]7C[C@H]7N6C(=O)[C@@H](NC(=O)OC)C(C)C)[nH]5)ccc4n32)s1 (single isomer, unassigned)")
-1.05
>>> data_value("CCc1ncc(C2Oc3cc(-c4cnc([C@@H]5CCCN5C(=O)[C@@H](NC(=O)OC)C(C)C)[nH]4)cc(F)c3-c3cc4cc(-c5cnc([C@@H]6C[C@H]7C[C@H]7N6C(=O)[C@@H](CC(=O)OC)C(C)C)[nH]5)ccc4n32)s1 (single isomer, unassigned)")
-0.92
>>> data_value("COC(=O)N[C@H](C(=O)N1CCC[C@H]1c1ncc(-c2cc(F)c3c(c2)OC(c2cnc(C)s2)n2c-3cc3cc(-c4cnc([C@@H]5CCCN5C(=O)[C@@H](NC(=O)OC)C(C)C)[nH]4)ccc32)[nH]1)C(C)C (mixture of isomers)")
0.25
>>> data_value("COC(=O)NC(C(=O)N1CCC[C@H]1c1ncc(-c2ccc3c(c2)cc2n3C(c3cnc(C4CC4)s3)Oc3cc(-c4cnc([C@@H]5CCCN5C(=O)[C@@H](NC(=O)OC)C(C)C)[nH]4)cc(C)c3-2)[nH]1)C1C[C@@H](C)O[C@H](C)C1 (single isomer, unassigned)")
-0.90
>>> data_value("COC(=O)N[C@H](C(=O)N1CCC[C@H]1c1ncc(-c2cc(F)c3c(c2)OC(c2cnc(C(C)C)s2)n2c-3cc3cc(-c4cnc([C@@H]5CCCN5C(=O)[C@@H](NC(=O)OC)C(C)C)[nH]4)ccc32)[nH]1)C(C)C (single isomer, unassigned)")
-0.73
>>> data_value("COC(=O)N[C@H](C(=O)N1CCC[C@H]1c1ncc(-c2cc(F)c3c(c2)OC(c2cnc(-c4ccncc4)s2)n2c-3cc3cc(-c4cnc([C@@H]5CCCN5C(=O)[C@@H](NC(=O)OC)C(C)C)[nH]4)ccc32)[nH]1)C(C)C (single isomer, unassigned)")
0.71

Now look at this one.
The recorded log10(IC50) for COC(=O)N[C@H](C(=O)N1CCC[C@H]1c1ncc(-c2cc(F)c3c(c2)OC(c2cnc(C4CCOCC4)s2)n2c-3cc3cc(-c4cnc([C@@H]5CCCN5C(=O)[C@@H](NC(=O)OC)C(C)C)[nH]4)ccc32)[nH]1)C(C)C (single isomer, unassigned) is -0.48

====

- Test system: HCV replicon 1AY93H
- assay info: Cell-based HCV Replicon Assay A, replicon 1AY93H
- test parameters: read-out: 1A Y93H IC50, replicon 1AY93H
quantity: IC50 (pM)
// note: answer is a bare numeric in pM

Recorded results for 3 compounds are shown here.
>>> data_value("CCCc1ncc(C2Oc3cc(-c4cnc([C@@H]5CCCN5C(=O)[C@@H](NC(=O)OC)C(C)C)[nH]4)cc(F)c3-c3cc4cc(-c5cnc([C@@H]6CCCN6C(=O)[C@@H](NC(=O)OC)C(C)C)[nH]5)ccc4n32)s1 (stereo partly shown) [Compound 15]")
5.9
>>> data_value("CCc1ncc(C2Oc3cc(-c4cnc([C@@H]5CCCN5C(=O)[C@@H](NC(=O)OC)C(C)C)[nH]4)cc(F)c3-c3cc4cc(-c5cnc([C@@H]6C[C@H]7C[C@H]7N6C(=O)C(NC(=O)OC)C6CCOC(C)(C)C6)[nH]5)ccc4n32)s1 (single isomer, unassigned) [Compound 94]")
3.5
>>> data_value("COC(=O)NC(C(=O)N1CCC[C@H]1c1ncc(-c2ccc3c(c2)cc2n3C(c3cnc(CC(C)C)s3)Oc3cc(-c4cnc([C@@H]5CCCN5C(=O)[C@@H](NC(=O)OC)C(C)C)[nH]4)cc(F)c3-2)[nH]1)C1CCOC(C)(C)C1 (single isomer, unassigned) [Compound 545]")
4

The recorded IC50 for COC(=O)N[C@H](C(=O)N1CCC[C@H]1c1ncc(-c2cc(F)c3c(c2)OC(c2cnc(C4(C)CCCC4)s2)n2c-3cc3cc(-c4cnc([C@@H]5C[C@H]6C[C@H]6N5C(=O)[C@@H](NC(=O)OC)C(C)C)[nH]4)ccc32)[nH]1)C(C)C (single isomer, unassigned) [Compound 455] is 981

The recorded IC50 for CCCc1ncc(C2Oc3cc(-c4cnc([C@@H]5CCCN5C(=O)[C@@H](NC(=O)OC)C(C)C)[nH]4)cc(C)c3-c3cc4cc(-c5cnc([C@@H]6C[C@H]7C[C@H]7N6C(=O)[C@@H](NC(=O)OC)C(C)C)[nH]5)ccc4n32)s1 (single isomer, unassigned) [Compound 205] is 2460

The recorded IC50 for CCCc1ncc(C2Oc3cc(-c4cnc([C@@H]5CCCN5C(=O)[C@@H](NC(=O)OC)C(C)C)[nH]4)cc(F)c3-c3cc4cc(-c5cnc([C@@H]6C[C@H]7C[C@H]7N6C(=O)[C@@H](NC(=O)OC)C(C)C)[nH]5)ccc4n32)s1 (single isomer, unassigned) [Compound 90] is 3.8

The recorded IC50 for COC(=O)NC(C(=O)N1CCC[C@H]1c1ncc(-c2ccc3c(c2)cc2n3C(c3cnc(C4(C)CCCC4)s3)Oc3cc(-c4cnc([C@@H]5CCCN5C(=O)[C@@H](NC(=O)OC)C(C)C)[nH]4)cc(F)c3-2)[nH]1)C1CCOC(C)(C)C1 (single isomer, unassigned) [Compound 472] is 555
